System under test: Mpk1 (Fusarium oxysporum, UniProt X0BN28)
Measured parameter: Kd (µM)
Report only the number, with the unit µM understood.

Entry CNC(=O)[C@H](Cc1c[nH]c2ccccc12)NC(=O)c1ccc2cncc(-c3cc(OC(F)(F)F)ccc3OC)c2n1 [A378-0] , Mpk1 (Fusarium oxysporum, UniProt X0BN28) data, Kd value: 70.3

Where do these numbers come from? They come from paper PMC10127588.
